Molecular target: T1, human FAP (Homo sapiens, UniProt Q12884)
T1 sequence (Q12884 1-760): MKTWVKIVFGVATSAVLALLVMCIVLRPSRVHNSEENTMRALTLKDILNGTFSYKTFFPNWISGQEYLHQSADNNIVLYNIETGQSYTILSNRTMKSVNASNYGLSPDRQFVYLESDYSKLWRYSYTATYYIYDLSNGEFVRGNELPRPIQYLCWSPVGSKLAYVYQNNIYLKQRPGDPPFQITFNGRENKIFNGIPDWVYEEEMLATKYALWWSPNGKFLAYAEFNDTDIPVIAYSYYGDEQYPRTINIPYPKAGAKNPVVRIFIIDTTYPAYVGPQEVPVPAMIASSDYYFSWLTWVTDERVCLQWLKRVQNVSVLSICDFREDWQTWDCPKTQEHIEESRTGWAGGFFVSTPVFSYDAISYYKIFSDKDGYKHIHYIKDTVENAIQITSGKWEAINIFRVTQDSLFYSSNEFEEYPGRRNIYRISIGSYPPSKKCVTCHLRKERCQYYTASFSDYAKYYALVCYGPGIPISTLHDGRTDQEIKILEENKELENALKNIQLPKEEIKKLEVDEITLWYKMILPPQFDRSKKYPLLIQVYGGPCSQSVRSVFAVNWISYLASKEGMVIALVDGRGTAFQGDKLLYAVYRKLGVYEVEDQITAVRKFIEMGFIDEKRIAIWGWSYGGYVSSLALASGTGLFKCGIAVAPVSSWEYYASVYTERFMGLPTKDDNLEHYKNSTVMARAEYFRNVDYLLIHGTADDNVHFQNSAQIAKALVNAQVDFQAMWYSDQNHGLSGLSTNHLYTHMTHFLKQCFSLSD
Test: BLI (Octet) binding kinetics pre- and post-TCO conjugation (Example 7, Table 17)
Details: Post conjugation (TCO)
Attribute: kon
measured endpoint: kon (M⁻¹ s⁻¹)

- molecule: "VHH9: VHH, target FAP, SEQ ID NO 92 (protein) VHH: QVQLQESGGGLVQSGGSLRLSCVASGSISSINAMGWYRQAPGNKREWVAGITSGGSTNYADAVLGRFSIFRDNPKNTVYLQMNSLKPEDTAVYYCNTWPPSTFGSWGQGTQVTVSSAAAYPYDVPDYGSHHHHHH"
  unit info: "M⁻¹ s⁻¹"
  reported result: "1.26e+06"
- molecule: "VHH6: VHH, target FAP, SEQ ID NO 89 (protein) VHH: DVQLVESGGGLVQAGGSLRLSCAVSGSISSANSMGWYRQAPGKQRDVVAGLTTGGRSHYADSVKGRFTISRDNAKNTVYLQMNSLKAEDTAVYYCNLWPPVQGYWGQGTQVTVSS"
  unit info: "M⁻¹ s⁻¹"
  reported result: "1.07e+06"
- molecule: "VHH1: VHH, target FAP, SEQ ID NO 4 (protein, VHH1) VHH: DVQLVESGGGLVQPGGSLRLSCVASGRLSSSNSMAWYRQVPGKRRELVAGITGGGETNYADFVGGRFTISRDNAKNGLYLQLNGLKPEDTAAYYCNFWPPLINYWGQGTQVTVSS"
  unit info: "M⁻¹ s⁻¹"
  reported result: 694000
